tested on: HIV-1 envelope glycoprotein gp120 of virus VS001 (HIV-1)
assay summary: cell-based or functional assay
Reported neutralization IC50 values follow for various binders
metric: neutralization IC50 (µg/mL)

binder="1.1.117-1 (antibody, human IgG1, kappa, V domains shown) VH: QVQLLQSGAAVTKPGASVRVSCEASGYNIRDYFIHWWRQAPGQGLQWVGWINPKTGQPNNPRQFQGRVSLTRHASWDFDTFSFYMDLKALRSDDTAVYFCARQRSDYWDFDVWGSGTQVTVSS VL: DIQMTQSPSSLSASVGDTATITCQANGYLNWYQQRRGKAPKLLIYDGSKLERGVPSRFSGRRWGQEYILTINNLQPEDIATYFCQVYEFFGPGTRLDLKR" units_text=µg/mL assay_value=3.03
binder="3.1.18-1 (antibody, human IgG1, kappa, V domains shown) VH: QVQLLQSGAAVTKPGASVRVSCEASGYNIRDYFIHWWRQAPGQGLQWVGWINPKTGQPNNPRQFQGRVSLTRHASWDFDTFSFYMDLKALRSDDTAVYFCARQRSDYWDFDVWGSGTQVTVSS VL: DIQMTQSPSSLSARVGDRATITCQANGYLNWYQQRRGKAPKLLIYDGSKLERGVPARFSGSRWGQEYHLTISSLQPEDVATYFCQVYEFFGPGTRLDLKR" units_text=µg/mL assay_value=3.52
